# Test system: COLO 205 colon
# Test description: NCI-60 one-dose screen, 48 h
# Condition notes: 10 µM unless noted
This is part of a sample that, as a whole, favours compounds with a hit. Of some 83,000 tested, about 20% had one in any assay. Active and inactive are the calls of the source. How the source made its calls: active means growth percent below 10; inactive means the rest.
Possible outcomes: active, inactive

# Compound, Class
records = [
    ("COc1cccc(NC(=O)c2sc3nc(C)c(C(C)=O)cc3c2N)c1", "active"),
    ("Brc1ccc(-c2csc(Nc3ccccn3)n2)cc1", "inactive"),
    ("O=c1ccccc(-c2ccc(-c3ccco3)cc2)c1O", "inactive"),
    ("Cc1ccc2c(C(C[N+](=O)[O-])c3ccccc3)c(-c3ccccc3)[nH]c2c1 (stereo not given)", "active"),
    ("C=C1C(=O)O[C@H]2[C@H]1CC/C(C=Nc1ccc(C(F)(F)F)cc1N)=C\\CC[C@@]1(C)O[C@@H]21", "active"),
]

###

# Tested on: HOP-62 NSCLC
# Test description: NCI-60 one-dose screen, 48 h (100 = growth as untreated, 0 = no growth, -100 = all killed)
# Condition notes: 10 µM unless noted
The panel holds about 83,000 compounds, 20% with a hit somewhere; the sample as a whole holds those more often.

# Smiles str, growth (%)
measured = [
    ("CNC(=O)c1cc(Oc2ccc(NC(=O)Nc3ccc(Cl)c(SC)c3)c(F)c2)ccn1", 62.1),
    ("COC(=O)c1cccc(NC(=O)c2ccc(-c3cccc(N)c3)o2)c1", 104),
    ("CCOC(=O)c1c(C(=O)OCC)c2cc(-c3ccn4c(C(=O)c5ccccc5)c(C(=O)OCC)c(C(=O)OCC)c4c3)ccn2c1C(=O)c1ccccc1", 97.4),
    ("COc1cc(/C=C/c2cc(/C=C/c3ccc(O)c(OC)c3)n(-c3c(Cl)cccc3Cl)c(=O)n2)ccc1O", 50.6),
]

###

# System: SN12C renal
# Test description: NCI-60 one-dose screen, 48 h
# Condition notes: 10 µM unless noted
About 83,000 compounds went through this panel and 20% of them were active in at least one assay; those are over-represented in the sample as a whole. Calls of active or inactive are those of the source. How the source made its calls: active means growth percent below 10; inactive means the rest.
Possible outcomes: TRUE = active, FALSE = inactive

# Compound, Class
measured = [
    ("Cc1cc2c3ccccc3ccc2[n+]2ccccc12", "TRUE"),
    ("CC(O)CN(CC(C)O)c1ccc2c(c1)Cc1cc([N+](=O)[O-])ccc1-2 (stereo not drawn)", "FALSE"),
    ("C#CCOc1ccc2ncnc(NCc3cccc(NC(=O)CCl)c3)c2c1", "FALSE"),
]

###

# Tested on: MDA-MB-231 breast
# Test description: NCI-60 one-dose screen, 48 h
# Condition notes: 10 µM unless noted
This is part of a sample that, as a whole, favours compounds with a hit. Of some 83,000 tested, about 20% had one in any assay. Active and inactive are the calls of the source. How the source made its calls: active means growth percent below 10; inactive means the rest.
Possible outcomes: active, inactive

# Compound, Assay system, Class
data = [
    ("CC(O)CN(CC(C)O)c1ccc2c(c1)Cc1cc([N+](=O)[O-])ccc1-2 (centres undefined)", "MDA-MB-231 breast", "inactive"),
    ("Clc1ccc2c(NCCCCNc3nc(N4CCOCC4)nc4ccccc34)ccnc2c1", "MDA-MB-231 breast", "active"),
    ("N#Cc1nnn(-c2ccc(S(N)(=O)=O)cc2)c1NC(=O)CCl", "MDA-MB-231 breast", "inactive"),
    ("COc1cc2c(cc1O)CC[C@@H]1[C@@H]2CC[C@]2(C)[C@@H](OCCCN(C)C)CC[C@@H]12", "MDA-MB-231 breast", "active"),
]
